Values compiled from patent US10464893B2.

Listing of recorded Effectiveness (%) by entry.
Test system: Plasmopara viticola
Assay: Preventive activity (7 days) against Plasmopara viticola on vines
Type: in vivo
Conditions: dose 125 ppm; leaf spray on vine plants, inoculation 7 days after treatment; reduction of diseased leaf area vs non-treated (100=total effectiveness)
reportedEndpoint: Effectiveness (%)

INSERT INTO measurements (entrysmiles, reportedendpoint, outputunit, recordednumber) VALUES
  ('CS(=O)(=O)ON1C(=O)C(c2ccccc2Br)=C(c2cccc3ccccc23)C1=O', 'Effectiveness (%)', '%', 91),
  ('CS(=O)(=O)N1C(=O)C(c2ccccc2)=C(c2cccc3ccccc23)C1=O', 'Effectiveness (%)', '%', 86),
  ('CC(=O)ON1C(=O)C(c2ccccc2Br)=C(c2cccc3ccccc23)C1=O', 'Effectiveness (%)', '%', 82),
  ('CCOC(=O)NN1C(=O)C(c2ccccc2Br)=C(c2cccc3ccccc23)C1=O', 'Effectiveness (%)', '%', 89);

====

Tested on: Uromyces appendiculatus
Experiment: Preventive activity (7 days) against Uromyces appendiculatus on beans
Format: in vivo
Conditions: dose 125 ppm; leaf spray on bean plants, inoculation 7 days after treatment; reduction of diseased leaf area vs non-treated (100=total effectiveness)
Listing of recorded Effectiveness (%) by entry.
reportedEndpoint: Effectiveness (%)

INSERT INTO assay_data (compound, recordednumber) VALUES
  ('CS(=O)(=O)N1C(=O)C(c2ccccc2)=C(c2cccc3ccccc23)C1=O [Compound 3]', 84),
  ('CS(=O)(=O)ON1C(=O)C(c2ccccc2Br)=C(c2cccc3ccccc23)C1=O [Compound 12]', 83),
  ('CC(=O)ON1C(=O)C(c2ccccc2Br)=C(c2cccc3ccccc23)C1=O [Compound 11]', 80),
  ('CCOC(=O)NN1C(=O)C(c2ccccc2Br)=C(c2cccc3ccccc23)C1=O [Compound 13]', 81);

====

Listing of recorded Effectiveness (%) by entry.
Test system: Uromyces appendiculatus
Assay: Preventive activity (7 days) against Uromyces appendiculatus on beans
Type: in vivo
Settings: dose 500 ppm; leaf spray on bean plants, inoculation 7 days after treatment; reduction of diseased leaf area vs non-treated (100=total effectiveness)
reportedEndpoint: Effectiveness (%)

INSERT INTO results (compound, reportedendpoint, result) VALUES
  ('CS(=O)(=O)N1C(=O)C(c2ccccc2)=C(c2cccc3ccccc23)C1=O [Compound 3]', 'Effectiveness (%)', '93%'),
  ('CC(=O)ON1C(=O)C(c2ccccc2Br)=C(c2cccc3ccccc23)C1=O [Compound 11]', 'Effectiveness (%)', '95%'),
  ('CS(=O)(=O)ON1C(=O)C(c2ccccc2Br)=C(c2cccc3ccccc23)C1=O [Compound 12]', 'Effectiveness (%)', '98%'),
  ('CCOC(=O)NN1C(=O)C(c2ccccc2Br)=C(c2cccc3ccccc23)C1=O [Compound 13]', 'Effectiveness (%)', '92%');

====

Listing of recorded Effectiveness (%) by entry.
System: Plasmopara viticola
Assay: Preventive activity (7 days) against Plasmopara viticola on vines
Assay type: in vivo
Conditions: dose 500 ppm; leaf spray on vine plants, inoculation 7 days after treatment; reduction of diseased leaf area vs non-treated (100=total effectiveness)
reportedEndpoint: Effectiveness (%)

INSERT INTO results (molecule, reportedendpoint, recordednumber) VALUES
  ('CS(=O)(=O)N1C(=O)C(c2ccccc2)=C(c2cccc3ccccc23)C1=O [Compound 3]', 'Effectiveness (%)', 99),
  ('CS(=O)(=O)ON1C(=O)C(c2ccccc2Br)=C(c2cccc3ccccc23)C1=O [Compound 12]', 'Effectiveness (%)', 93),
  ('CC(=O)ON1C(=O)C(c2ccccc2Br)=C(c2cccc3ccccc23)C1=O [Compound 11]', 'Effectiveness (%)', 92),
  ('CCOC(=O)NN1C(=O)C(c2ccccc2Br)=C(c2cccc3ccccc23)C1=O [Compound 13]', 'Effectiveness (%)', 97);
